The reported measurements were obtained from patent US20260242735A1.

# system.under.test: human CD33 variant K52G (human, UniProt P20138 18-364)
# Sequence (P20138 18-364 K52G limits assumed): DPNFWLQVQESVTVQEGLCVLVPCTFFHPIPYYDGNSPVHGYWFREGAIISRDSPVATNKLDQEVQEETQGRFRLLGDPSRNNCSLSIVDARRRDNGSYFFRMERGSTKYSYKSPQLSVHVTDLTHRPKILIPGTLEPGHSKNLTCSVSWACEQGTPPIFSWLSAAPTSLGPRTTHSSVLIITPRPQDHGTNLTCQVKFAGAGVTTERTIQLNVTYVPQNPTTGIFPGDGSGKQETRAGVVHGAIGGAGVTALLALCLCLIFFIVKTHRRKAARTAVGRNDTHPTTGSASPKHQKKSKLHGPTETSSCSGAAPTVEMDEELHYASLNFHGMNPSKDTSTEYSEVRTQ
# test.details: flow cytometry, IgG on cells expressing the mutant
Listed binders paired with reported Mean % WT Binding

# binder, Mean % WT Binding
measured = [
    ("Refmab #2 (antibody, human IgG1, V domains shown, Tested in IgG format; human IgG1 Fc silent (PG-LALA)) VH: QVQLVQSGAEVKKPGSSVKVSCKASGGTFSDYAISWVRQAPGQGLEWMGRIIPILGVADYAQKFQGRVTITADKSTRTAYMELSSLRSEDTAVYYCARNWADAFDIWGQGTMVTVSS VL: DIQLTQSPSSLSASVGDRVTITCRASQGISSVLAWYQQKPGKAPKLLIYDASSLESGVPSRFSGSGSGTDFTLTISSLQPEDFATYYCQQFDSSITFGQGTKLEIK", "25.4 % of WT"),
    ("Refmab #1 (antibody, human IgG1, V domains shown, Tested in IgG format; human IgG1 (Absolute Antibody hP67.6, Cat. No. Ab00283-10.0); also called hP67.6) VH: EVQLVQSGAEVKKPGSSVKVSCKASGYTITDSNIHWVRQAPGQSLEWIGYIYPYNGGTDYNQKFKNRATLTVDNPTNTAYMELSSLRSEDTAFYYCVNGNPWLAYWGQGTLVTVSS VL: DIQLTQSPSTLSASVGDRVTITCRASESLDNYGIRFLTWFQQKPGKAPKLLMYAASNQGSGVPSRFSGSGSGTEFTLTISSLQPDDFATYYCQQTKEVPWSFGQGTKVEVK", "98.8 % of WT"),
    ("Refmab #4 (antibody, human IgG1, V domains shown, Tested in IgG format; human IgG1 Fc silent (PG-LALA)) VH: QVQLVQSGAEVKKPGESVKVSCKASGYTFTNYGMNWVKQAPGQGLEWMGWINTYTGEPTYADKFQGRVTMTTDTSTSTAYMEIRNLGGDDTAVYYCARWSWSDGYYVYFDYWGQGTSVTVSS VL: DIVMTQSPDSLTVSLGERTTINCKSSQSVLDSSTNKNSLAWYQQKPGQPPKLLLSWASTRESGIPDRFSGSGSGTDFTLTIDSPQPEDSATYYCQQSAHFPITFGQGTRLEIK", "69.5 % of WT"),
    ("Refmab #3 (antibody, human IgG1, V domains shown, Tested in IgG format; human IgG1 Fc silent (PG-LALA)) VH: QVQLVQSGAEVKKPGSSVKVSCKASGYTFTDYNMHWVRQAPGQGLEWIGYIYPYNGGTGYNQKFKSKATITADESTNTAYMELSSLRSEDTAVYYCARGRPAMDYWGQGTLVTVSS VL: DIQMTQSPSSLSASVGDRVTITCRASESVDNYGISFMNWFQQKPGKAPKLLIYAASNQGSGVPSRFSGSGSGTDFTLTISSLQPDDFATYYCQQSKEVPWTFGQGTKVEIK", "106 % of WT"),
]
